B1: Osa-1-4 twister ribozyme (parent)
chain: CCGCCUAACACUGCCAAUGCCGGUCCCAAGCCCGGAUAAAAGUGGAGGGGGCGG

- Variants of: B1
- Assay name: self-cleavage, relative activity (ratio to wild type); higher = more cleavage; co-transcriptional
Readout: self-cleavage
Keep the answer to the number alone.

| Mutant label | Value measured |
| --- | --- |
| C21G U18C | 0.08 |

Provide self-cleavage value for the following variant: C14G G44U
0.08

Please give measured self-cleavage of the following entry: C11A G51U
0.06

Provide only the value of recorded self-cleavage for C15U G54A
0.16

Determine its reported self-cleavage: G44U U37G
0.95

Tell us which self-cleavage value is on record for A16U U12G
0.16

Write down self-cleavage measured for item G19U G30U
0.04
